# Test system: DNA-PK (Homo sapiens (Human))
# Test summary: DNA-PK biochemical assay (FlashPlate kinase assay, Example 4)
# Setup conditions: 5 μM ATP; read-out: biochemical activity (assay from Example 4)
Outcome measure: pIC50
Schema: pIC50 number; meaning minus log10 of the concentration expressed in molar units.

## Input Query pIC50 for "O[C@H](c1nccs1)[C@H]1CCCN(c2nnnc3cc(N4CCOCC4)ccc23)C1"
## Output 9.00

###

Each entry below lists one item and its recorded pIC50 value.
# Test system: DNA-PK (Homo sapiens (Human))
# Test summary: DNA-PK biochemical assay (FlashPlate kinase assay, Example 4)
# Setup conditions: 5 μM ATP; read-out: Bonding DNA-PK IC50
pIC50: −log10 of the molar value.

Field: example entries. Status: answers known.
Cc1csc([C@H](O)[C@H]2CCCN(c3nnnc4cc(N5CCOCC5)ccc34)C2)n1 [compound 5] ... > 7.00
Cc1csc([C@@H](O)[C@@H]2CCCN(c3nnnc4cc(N5CCOCC5)ccc34)C2)n1 [compound 6] ... > 7.00

Now for the molecule whose pIC50 we want.
## Input Query pIC50 for C[C@](O)(c1nccs1)[C@H]1CCCN(c2nnnc3cc(N4CCOCC4)ccc23)C1 [compound 8]
## Output > 7.00
